Could you please report measured AC50 for the items listed next?
# Tested on: Clone20 osteoblast Shn3 3'UTR firefly luciferase, 24 h
# assay: Shn3 3'UTR reporter inhibitors, dose response, cell-based, Clone20 osteoblasts, luminescence, dry powder, set 2 (AID 743417)
Inconclusive results are not listed.

Task item: # lookup: AC50 of `CC(=O)N1CCN(c2ccc(NC(=O)c3ccc([N+](=O)[O-])o3)cc2Cl)CC1`
Reply: 1.08 µM

Task item: Please give the result for `O=C(Oc1c(CN2CCOCC2)cc(Cl)c2cccnc12)c1ccccc1Cl` too.
Reply: 4.59 µM

Task item: Please give the result for `CN(C)c1ccc(C=Cc2ccnc3c(O)cccc23)cc1` too.
Reply: 1.43 µM

Task item: Please give the result for `COc1ccc(NS(=O)(=O)c2ccc(OC)c(N(C)S(=O)(=O)c3ccc(Cl)cc3)c2)cc1` too.
Reply: 2.92 µM

Reference source: PubChem BioAssay AID743417
